- Tested on: Salmonella typhimurium
- test details: Induction of mutagenicity in Salmonella Typhimurium TA100 assessed as number of revertant per nmol after 48 hrs relative to metranidazole
- Format: toxicity, organism-based
- experimental conditions: salmonella enterica subsp. enterica serovar typhimurium
reported endpoint: Activity

>  <compound>
Cc1nc(CS(=O)(=O)c2ccc(Br)cc2)c([N+](=O)[O-])n1C

>  <Activity>
0.79

$$$$
>  <compound>
Cc1nc(CS(=O)(=O)c2ccc(Br)cc2)c([N+](=O)[O-])n1CCO

>  <Activity>
0.13

$$$$
>  <compound>
Cc1nc(CS(=O)(=O)c2ccc(F)cc2)c([N+](=O)[O-])n1C

>  <Activity>
0.18

$$$$
>  <compound>
Cn1cnc(CS(=O)(=O)c2ccccc2)c1[N+](=O)[O-]

>  <Activity>
1.71

$$$$
>  <compound>
Cc1nc(CS(=O)(=O)c2ccc(Br)cc2)c([N+](=O)[O-])n1CC(C)O (stereo unspecified)

>  <Activity>
0.17

$$$$

Read the entry Cc1nc(CS(=O)(=O)c2ccccc2)c([N+](=O)[O-])n1C and write its reported Activity. 0.99

Please list Activity recorded for the compound Cc1ccc(S(=O)(=O)Cc2nc(C)n(C)c2[N+](=O)[O-])cc1 0.56

# return recorded Activity for entry Cc1ccc(S(=O)(=O)Cc2ncn(C)c2[N+](=O)[O-])cc1 2.46

Tell me Activity reported for Cc1ncc([N+](=O)[O-])n1C 2.6

Give a short answer stating reported Activity for Cc1nc(CS(=O)(=O)c2ccccc2)c([N+](=O)[O-])n1CC(C)O (stereo unspecified) . 0.1

Give the measured Activity for Cc1nc(CS(=O)(=O)c2ccccc2)c([N+](=O)[O-])n1CCO 0.07
